Values from patent US7964635B2

Reported inhibition in vivo at 1 mg/kg by item:
system: Trichostrongylus colubriformis; assay: In-vivo test on Trichostrongylus colubriformis on Mongolian gerbils using peroral application; conditions: po, 72 h, 1 mg/kg peroral, worm count 3 days after treatment, read-out: Tc: efficacy, % reduction of the number of worms
Just the number in %, nothing appended.

Example entries begin here.
CC(C#N)(COc1cc(C#N)ccc1C(F)(F)F)NC(=O)c1ccc([S+]([O-])C(F)(F)F)cc1 (centres unmarked) [No. 3.17] | 100
CC(C#N)(COc1ccc(C#N)cc1C(F)(F)F)NC(=O)c1ccc(S(=O)(=O)C(F)(F)F)cc1 (centres unmarked) [No. 3.9] | 87
CC(C#N)(COc1cc(C#N)ccc1C(F)(F)F)NC(=O)c1ccc(S(=O)(=O)C(F)(F)F)cc1 (centres unmarked) [No. 3.18] | 100
CC(C#N)(COc1ccc(C#N)cc1Cl)NC(=O)c1ccc(C(F)(F)F)cc1 (centres unmarked) [No. 1.1] | 87
CC(C#N)(COc1cc(C#N)ccc1C(F)(F)F)NC(=O)c1ccc(C(F)(F)F)cc1 (centres unmarked) [No. 1.6] | 87

input: Any idea what inhibition in vivo at 1 mg/kg was measured for CC(C#N)(COc1cc(C#N)ccc1Cl)NC(=O)c1ccc(OC(F)(F)F)cc1 (centres unmarked) [No. 2.4] ?
output: 79

input: Now the compound CC(C#N)(COc1cc(C#N)ccc1C(F)(F)F)NC(=O)c1ccc(SC(F)(F)F)cc1 (centres unmarked) [No. 3.16]
output: 100

input: Queued: CC(C#N)(COc1ccc(C#N)cc1C(F)(F)F)NC(=O)c1ccc([S+]([O-])C(F)(F)F)cc1 (centres unmarked) [No. 3.8]
output: 85

* * *

Experimental endpoint: melting point

Examples with answers:
CC(C#N)(COc1cc(C#N)ccc1C(F)(F)F)NC(=O)c1ccc(C(F)(F)F)cc1 (stereo not drawn) | 154 °C
CC(C#N)(COc1ccc(C#N)cc1C(F)(F)F)NC(=O)c1ccc(SC(F)(F)F)cc1 (stereo not drawn) | 79 to 82 °C
CC(C#N)(COc1ccc(C#N)cc1Cl)NC(=O)c1ccc(SC(F)(F)F)cc1 (stereo not drawn) | 167 to 169 °C
CC(C#N)(COc1ccc(C#N)cc1Cl)NC(=O)c1ccc(C(F)(F)F)cc1 (stereo not drawn) | 147 to 149 °C
CC(C#N)(COc1cc(C#N)ccc1Cl)NC(=O)c1ccc(SC(F)(F)F)cc1 (stereo not drawn) | 125 to 127 °C

input: Can you share its melting point? I mean this compound: CC(C#N)(COc1cc(C#N)ccc1Cl)NC(=O)c1ccc(OC(F)(F)F)cc1 (stereo not drawn)
output: 132 to 134 °C
